Every entry's value here was drawn from patent US20230100838A1.

Biological target: GDP-loaded K-Ras (1-169) G12D, C51S, C80L, C118S (Homo sapiens, UniProt P01116, C118S/C51S/C80L/G12D)
Construct: GDP-loaded K-Ras (1-169) G12D, C51S, C80L, C118S
Assay: K-Ras G12D(GDP) cross-linking assay (conjugate formation, TOF mass spectrometry)
Format: binding
Conditions: Table 5; percent covalently modified K-Ras by MS; room temperature; typical compound conc. 2, 10, 25 μM, endpoints 1 and 24 h
Procedure: Protocol: K-Ras G12D(GDP) Cross-Linking Assay […] GDP-loaded K-Ras (1-169) G12D, C51S, C80L, C118S and GDP-loaded K-Ras (1-169) C51S, C80L, C118S were adjusted to 50 μM in K-Ras assay buffer (12.5 mM HEPES, 75 mM NaCl and 1 mM MgCl2 at pH 7.4). […] At each time point, the reactions were analyzed immediately or quenched with 5 μL of a 5% formic acid solution and kept at 4° C. until analysis. […]
quantity-name: G12D x-linking (%)

>  <smiles-str>
COCC1(N=C=N[C@@H]2CCN(c3nc(OC[C@@H]4CCCN4C)nc4c3CCN(c3cccc5cccc(C)c35)C4)C[C@@H]2CC#N)CC1

>  <reported>
++ (20 < x ≤ 40)

$$$$
>  <smiles-str>
CN1CCC[C@H]1COc1nc2c(c(N3CCN(C(=O)[C@H]4CN4)[C@@H](CC#N)C3)n1)CCN(c1cc(O)cc3ccccc13)C2

>  <reported>
++ (20 < x ≤ 40)

$$$$
>  <smiles-str>
COCCN=C=N[C@H]1CCN(c2nc(OC[C@@H]3CCCN3C)nc3c2CCN(c2cccc4cccc(C)c24)C3)C[C@@H]1CC#N

>  <reported>
+++ (40 < x ≤ 100)

$$$$
>  <smiles-str>
CO[C@H]1CCCC[C@@H]1N=C=NC1CCN(c2nc(OC[C@@H]3CCCN3C)nc3c2CCN(c2cccc4cccc(C)c24)C3)CC1

>  <reported>
+ (0 < x ≤ 20)

$$$$
>  <smiles-str>
Cc1cccc2cccc(N3CCc4c(nc(OC[C@@H]5CCCN5C)nc4N4CCC(N=C=NCCN(C)c5ccccc5)CC4)C3)c12

>  <reported>
+ (0 < x ≤ 20)

$$$$

Can you give me G12D x-linking (%) for all of these, one by one?
1. Cc1ccc2[nH]ncc2c1N1CCc2c(nc(OC[C@@H]3CCCN3C)nc2N2CCN(C(=O)[C@@H]3CN3)[C@@H](CC#N)C2)C1
2. COCCN=C=N[C@@H]1CCN(c2nc(OC[C@@H]3CCCN3C)nc3c2CCN(c2cccc4cccc(C)c24)C3)C1

1. + (0 < x ≤ 20)
2. +++ (40 < x ≤ 100)

====

biological target: GDP-loaded K-Ras (1-169) G12D, C51S, C80L, C118S (Homo sapiens, UniProt P01116, C118S/C51S/C80L/G12D); construct: GDP-loaded K-Ras (1-169) G12D, C51S, C80L, C118S; assay: K-Ras G12D(GDP) cross-linking assay (conjugate formation, TOF mass spectrometry); format: binding; parameters: key: 0: No observed x-linking; +: 0 < x ≤ 20; ++: 20 < x ≤ 40; +++: 40 < x ≤ 100; settings: Table 5; percent covalently modified K-Ras by MS; room temperature; typical compound conc. 2, 10, 25 μM, endpoints 1 and 24 h
quantity-name: G12D x-linking (%)

Query: G12D x-linking (%); subject: `Cc1ccnc(C(C)C)c1-n1c(=O)nc(N2[C@H](C)CN(C(=O)[C@H]3CN3)C[C@H]2C)c2cc(F)c(-c3c(O)cccc3F)nc21`
0
